Structures can show the parent of a compound that is named as a salt.
property-measured: melting point

Known results for molecules:
CN1CCN=C1SCC1=CSC2=NC3CCCCC3N12 (racemic) (as salt: hydrochloride) [Example 63, dihydrochloride]	204 to 207 °C
CC1(C)CN2C(CSC3=NCC(c4ccccc4)N3)=CSC2=N1 (stereo not drawn) (as salt: hydrochloride) [Example 53, dihydrochloride]	110 to 120 °C

-- ask Entry CCCCC1CN=C(SCC2=CSC3=NCCN23)N1 (stereo not drawn) (as salt: hydrochloride) [Example 30, dihydrochloride] : reported melting point = ?
-- reply 176 to 178 °C

* * *

Where a name gives a salt, the structure may show the parent alone.
Consider the following molecules and their measured melting point readings.

-- ask Entry CC(C)C1CN2C(CSC3=NCC(C)(C)N3)=CSC2=N1 (stereo not shown) (as salt: hydrochloride) [Example 52, dihydrochloride] : reported melting point = ?
-- reply 227 to 232 °C

-- ask Same lookup for C1=C(CSC2=N[C@H]3COC[C@H]3N2)N2C(=N[C@@H]3COC[C@@H]32)S1 (mixture of isomers) (as salt: hydrochloride) [Example 36, dihydrochloride] , please.
-- reply > 250 °C

-- ask Same lookup for C1=C(CSC2=N[C@@H]3CCCC[C@H]3N2)N2CC(Cc3ccccc3)N=C2S1 (stereo partly shown) (as salt: hydrochloride) [Example 61, dihydrochloride] , please.
-- reply 125 to 130 °C

-- ask Same lookup for CC1(C)CN=C2SC=C(CSC3=NCC(C)(C)N3)N2C1 (as salt: hydrochloride) [Example 34, dihydrochloride] , please.
-- reply 169 to 175 °C

-- ask Same lookup for CC1(C)CN2C(CSC3=NCC(Cc4ccccc4)N3)=CSC2=N1 (stereo not shown) (as salt: hydrochloride) [Example 17, dihydrochloride] , please.
-- reply 83 to 103 °C

-- ask Same lookup for C1=C(CSC2=NCC(Cc3ccccc3)N2)N2CCCN=C2S1 (stereo not shown) (as salt: hydrochloride) [Example 48, dihydrochloride] , please.
-- reply 50 to 53 °C

-- ask Same lookup for C1=C(CSC2=NCC(Cc3ccccc3)N2)N2CC(Cc3ccccc3)N=C2S1 (stereo not shown) (as salt: hydrochloride) [Example 60, dihydrochloride] , please.
-- reply 117 to 121 °C

-- ask Same lookup for CCCCC1CN2C(CSC3=NCC(C)(C)N3)=CSC2=N1 (stereo not shown) (as salt: hydrochloride) [Example 19, dihydrochloride] , please.
-- reply 210 to 218 °C

-- ask Same lookup for CC1(C)CN2C(CCCSC3=NCC(C)(C)N3)=CSC2=N1.Cl.Cl , please.
-- reply 85 to 95 °C

-- ask Same lookup for CC1(C)CN2C(=N1)SC(I)=C2CSC1=NCC(C)(C)N1 (as salt: hydrochloride) [Example 66, dihydrochloride] , please.
-- reply 169 to 180 °C (dec.)

-- ask Same lookup for CC1(C)CN=C(SCC2=CSC3=NC4(CCCCC4)CN23)N1 (as salt: hydrochloride) [Example 42, dihydrochloride] , please.
-- reply 190 to 198 °C

-- ask Same lookup for C1=C(CSC2=NCCN2)N2CCCN=C2S1 (as salt: hydrochloride) [Example 26, dihydrochloride] , please.
-- reply > 250 °C

-- ask Same lookup for CC1(C)CN=C(SCCc2cccc3ncccc23)N1 (as salt: hydrochloride) [Example 41, dihydrochloride] , please.
-- reply 240 to 245 °C

* * *

Structures can show the parent of a compound that is named as a salt.
Consider the following compounds and their measured melting point readings.

C1=C(CSC2=N[C@@H]3CCCC[C@H]3N2)N2CCCCN=C2S1 (as salt: hydrochloride) [Example 46, dihydrochloride]	> 250 °C
CC1(C)CN2C(CSC3=NCCN3)=CSC2=N1 (as salt: hydrochloride) [Example 8, dihydrochloride]	140 to 144 °C
CC1(C)CN=C(SCC2=CSC3=NC(Cc4ccccc4)CN23)N1 (centres unmarked) (as salt: hydrochloride) [Example 18, dihydrochloride]	63 to 74 °C
CC1(C)CN=C(SCC2=CSC3=N[C@H]4CCCC(C4)N23)N1 (racemic) (as salt: hydrochloride) [Example 23, dihydrochloride]	240 to 245 °C
C1=C(CSC2=NCCCN2)N2CCN=C2S1 (as salt: hydrochloride) [Example 35, dihydrochloride]	100 to 102 °C

-- ask Entry C1=C(CSC2=NCCCN2)N2CCCCN=C2S1 (as salt: hydrochloride) [Example 37, dihydrochloride] : reported melting point = ?
-- reply > 250 °C

-- ask Same lookup for CC1(C)CN2C(CSC3=N[C@@H]4CCCC[C@H]4N3)=CSC2=N1 (as salt: hydrochloride) [Example 3, dihydrochloride] , please.
-- reply 65 to 75 °C

-- ask Same lookup for CC(C)[C@@H]1N=C(SCC2=CSC3=NC(C)(C)CN23)N[C@H]1C(C)C (as salt: hydrochloride) [Example 58, dihydrochloride] , please.
-- reply 154 to 160 °C

* * *

- Test system: TNF-α
- assay-text: Cytokine production by R848-activated PBMCs, LEGENDplex Human Inflammation panel 1: TNF-α
- Assay type: cell-based
- recorded-conditions: Homo sapiens, PBMC, PBMCs from 2 healthy donors, R848 overnight
Structures can show the parent of a compound that is named as a salt.
property-measured: IC50 (µM)
Value expressed in µM; do not type the unit.

Known results for compounds:
CC1(C)CN=C(SCC2=CSC3=NC(Cc4ccccc4)CN23)N1 (centres unmarked) [Example 18, dihydrochloride]	7.9
CC1(C)CN2C(CSC3=NCC(Cc4ccccc4)N3)=CSC2=N1 (centres unmarked) [Example 17, dihydrochloride]	4.6
CC1(C)CN2C(CSC3=N[C@@H]4CCCC[C@H]4N3)=CSC2=N1 [Example 3, dihydrochloride]	11
CC1(C)CN2C(CSC3=NCC(C)(C)N3)=CSC2=N1 [Example 2, dihydrochloride]	46

Now, please, on to the next compound.
-- ask Entry CC1(C)CN=C(SCC2=CSC3=N[C@H]4CCCC[C@@H]4N23)N1 (racemic) [Example 7, dihydrochloride] : reported IC50 = ?
-- reply 20

* * *

Where a name gives a salt, the structure may show the parent alone.
property-measured: melting point

Known results for compounds:
CC(C)C1CN=C(SCC2=CSC3=NC(C)(C)CN23)N1 (stereo not drawn) (as salt: hydrochloride) [Example 49, dihydrochloride]	234 to 237 °C
C1=C(CSC2=N[C@@H]3CCCC[C@H]3N2)N2CCCN=C2S1 (as salt: hydrochloride) [Example 45, dihydrochloride]	> 250 °C
CC(C)[C@@H]1N=C2SC=C(CSC3=NCC(C)(C)N3)N2[C@H]1C(C)C (racemic) (as salt: hydrochloride) [Example 62, dihydrochloride]	237 to 241 °C
C1=C(CSC2=N[C@@H]3CCCC[C@H]3N2)N2CCN=C2S1 (as salt: hydrochloride) [Example 44, dihydrochloride]	230 to 233 °C
CC1(C)CN2C(CSC3=NCCCCN3)=CSC2=N1 (as salt: hydrochloride) [Example 12, dihydrochloride]	> 250 °C

Now, please, on to the next compound.
-- ask Entry CC1(C)CN2C(CSC3=N[C@@H]4CCC[C@@H](C4)N3)=CSC2=N1 (as salt: hydrochloride) [Example 22, dihydrochloride] : reported melting point = ?
-- reply > 250 °C

* * *

Counter-ions that a name gives are not always drawn.
property-measured: melting point

Known results for compounds:
CC1(C)CN2C(CSC3=N[C@H]4CCCC[C@@H]4N3)=CSC2=N1 (as salt: hydrochloride) [Example 4, dihydrochloride]	167 to 175 °C
C1=C(CSC2=NCC(Cc3ccccc3)N2)N2C(=N[C@H]3CCCCC32)S1 (mixture of isomers) (as salt: hydrochloride) [Example 55, dihydrochloride]	137 to 142 °C
CC1(C)CN2C(CSC3=N[C@@H]4CCCC[C@@H]4N3)=CSC2=N1 (as salt: hydrochloride) [Example 5, dihydrochloride]	> 250 °C
CC1(C)CN=C(SCC2=CSC3=NC(c4ccccc4)CN23)N1 (stereo not shown) (as salt: hydrochloride) [Example 50, dihydrochloride]	245 to 247 °C
CCCCC1CN=C(SCC2=CSC3=N[C@H]4CCCCC4N23)N1 (mixture of isomers) (as salt: hydrochloride) [Example 54, dihydrochloride]	226 to 230 °C

-- ask Entry CC1(C)CN=C(SCC2=CSC3=NCCCN23)N1 (as salt: hydrochloride) [Example 14, dihydrochloride] : reported melting point = ?
-- reply 242 to 245 °C

-- ask Same lookup for CC1(C)CN2C(=N1)SCC2SC1=NCC(C)(C)N1 (stereo not shown) (as salt: hydrochloride) [Example 70, dihydrochloride] , please.
-- reply 240 to 243 °C

-- ask Same lookup for CC1(C)CN2C(CSC3=NCC4(CCCCC4)N3)=CSC2=N1 (as salt: hydrochloride) [Example 39, dihydrochloride] , please.
-- reply 225 to 231 °C

* * *

- Test system: IL-23
- assay-text: Cytokine production by R848-activated PBMCs, LEGENDplex Human Inflammation panel 1: IL-23
- Format: cell-based
- recorded-conditions: PBMCs from 2 healthy donors, R848 overnight
- Procedure: 2) The PBMCs used herein were prepared as described in part A “immune cells preparation”, section 2) above. PBMCs were seeded at 4.10^6/mL. […] Cells were then stimulated with the TLR7/8 agonist resiquimod—R848 (Sigma-Aldrich, MO, USA) at 5 μg/mL. Cytokine expression levels were assessed using LEGENDplex Human inflammation panel 1 Kit (BioLegend, California, USA), which is a bead-based multiplex assay, using fluorescence-encoded beads. […]
property-measured: IC50 (µM)
Value expressed in µM; do not type the unit.

-- ask Entry CC1(C)CN2C(CSC(=NC3CCCCC3)NC3CCCCC3)=CSC2=N1 [IT1t, reference compound] : reported IC50 = ?
-- reply 14

Sourced from patent US20220144853A1
